propertyMeasured: melting point

Solved cases below.
- molecule: "O=C(O)[C@@H]1C[C@H](O)CN1C(=O)c1ccccc1"
  propertyMeasured: "melting point"
  experimentalResult: "133 to 136 °C"
- molecule: "COc1cc2c(cc1Br)CC(C)N(C(=O)C1CC1)N=C2c1ccc([N+](=O)[O-])cc1 (stereo not given)"
  propertyMeasured: "melting point"
  experimentalResult: "194 to 196 °C"
- molecule: "COC(=O)c1nc(C)n2c1CNC(c1ccccc1)c1cc(Cl)ccc1-2 (stereo not given)"
  propertyMeasured: "melting point"
  experimentalResult: "233 to 235 °C"
- molecule: "O=c1[nH]nc2n1-c1ccc(Cl)cc1C(c1ccccc1F)CC2 (stereo not given)"
  propertyMeasured: "melting point"
  experimentalResult: "236 to 238 °C"
- molecule: "CC(C)N[C@H](CO)Cc1ccccc1"
  propertyMeasured: "melting point"
  experimentalResult: "65 to 66 °C"
- molecule: "COc1ccc2nc3cc(N4CCN(C)CC4)c(=O)cc-3sc2c1"
  propertyMeasured: "melting point"
  experimentalResult: "208 to 209 °C"
- molecule: "Cn1cccc1C1=C(c2cn(C)c3ccccc23)C(=O)NC1=O"
  propertyMeasured: "melting point"
  experimentalResult: "248 to 250 °C"
- molecule: "Cc1ccc(NC(=O)c2ccc(CN3CCNC(C(N)=O)C3)c(C(F)(F)F)c2)cc1Nc1nccc(-c2cncnc2)n1 (stereo not given)"
  propertyMeasured: "melting point"
  experimentalResult: "235 to 238 °C"
- molecule: "O=S(=O)(c1ccc(-n2cccn2)cc1)N1CCC(CNCC(O)COc2ccc(O)cc2)CC1 (stereo not given)"
  propertyMeasured: "melting point"
  experimentalResult: "169 to 171 °C"
- molecule: "CC1Oc2cc3nc(SCc4ccccn4)[nH]c3cc2O1"
  propertyMeasured: "melting point"
  experimentalResult: "155 to 156 °C"

Recorded result, `CCCc1nc2c(N)nc3cc(OCCCCCCNC(=O)OC(C)(C)C)ccc3c2s1` , melting point: 136 to 139 °C

Just so you know, measured melting point for `CC(C)(C)Sc1c(CC(C)(C)C(=O)O)n(Cc2ccc(Cl)cc2)c2c(OCc3ccc4ccccc4n3)cccc12` came out at 206 °C

For reference, reported melting point for Cc1c(C)c2c(c(C)c1NC(=O)c1ccc(Cl)cc1)C(c1ccc(C(C)C)cc1)C1(CCN(C)CC1)O2 (stereo not given) stands at 293 to 295 °C

---

propertyMeasured: melting point

Answered examples (10):
- compound: "O=C(O)CCCCCCCCCCCCCCCCCCC(=O)ON1C(=O)CCC1=O"
  propertyMeasured: "melting point"
  experimentalResult: "122 to 124 °C"
- compound: "CCOC(=O)C1=C(C)NC(=S)N(C(=O)OCc2ccccc2)C1c1cccc([N+](=O)[O-])c1 (stereo unspecified)"
  propertyMeasured: "melting point"
  experimentalResult: "122 to 124 °C"
- compound: "O=C(Nc1ccccc1)c1cccc(NC(=S)Nc2cc(Cl)cc(Cl)c2)c1"
  propertyMeasured: "melting point"
  experimentalResult: "174 to 177 °C"
- compound: "CCOC(=O)c1cc2c3cc(Br)ccc3ncn2c1"
  propertyMeasured: "melting point"
  experimentalResult: "183 to 185 °C"
- compound: "O=C1CCC(c2ccc(O)cc2)N1 (stereo unspecified)"
  propertyMeasured: "melting point"
  experimentalResult: "183 °C"
- compound: "COc1ccc(C(=O)Cc2cccnc2)cc1"
  propertyMeasured: "melting point"
  experimentalResult: "71 to 72 °C"
- compound: "CCCCCCCCCCCCCCCCCC(=O)c1ccc(O)c(C(=O)OC(C)C)c1"
  propertyMeasured: "melting point"
  experimentalResult: "72 to 73 °C"
- compound: "N#Cc1cccnc1CC1C(=O)C2(COc3cc4c(cc32)OCCO4)c2ccccc21 (stereo unspecified)"
  propertyMeasured: "melting point"
  experimentalResult: "230 to 233 °C"
- compound: "COc1ccc(Cc2cc(OC)c(OC)c(OC)c2)cc1"
  propertyMeasured: "melting point"
  experimentalResult: "66 to 67 °C"
- compound: "COc1ccc(Br)c2c1CN(Nc1ccncc1)CC2"
  propertyMeasured: "melting point"
  experimentalResult: "172 to 173 °C"

Continue with the next compound.
The reported melting point of the compound OC1Cc2ccccc2Sc2cc(Cl)c(F)cc21 (stereo unspecified) was 86 to 87 °C

---

// reported melting point for each item listed

Look over these answered cases.
- molecule: "O=C(O)CCc1cn(Cc2cccc(C(=O)Nc3cccnc3)c2)nc1-c1ccccc1"
  melting point: "131 to 132 °C"
- molecule: "Cc1ccc(-c2ccccc2C(=O)Nc2ccc(C(=O)N(CCO)c3ccccc3C)cc2)cc1"
  melting point: "115 to 118 °C"
- molecule: "COc1cccc(CNc2nccc(-c3cc(N4CCN(CCCN5CCCCC5)CC4)c4cc(OC)ccc4c3)n2)c1"
  melting point: "63 to 75 °C"
- molecule: "COc1ccc(C2=C(c3ccc(O)cc3)CCCc3cc(O)ccc32)cc1"
  melting point: "250 to 252 °C"
- molecule: "COc1cccc(NC(=O)NC2CC(c3ccccc3)CC(Cc3ccccc3)N(CC(=O)OC(C)(C)C)C2=O)c1 (stereo unspecified)"
  melting point: "95 to 105 °C"
- molecule: "CCOC(=O)Nc1c(C#N)c(C(F)(F)F)nn1-c1c(Cl)cc(C(F)(F)F)cc1Cl"
  melting point: "177 to 179 °C"

Entry `NC(=O)Cc1cccc(-c2csc(N=C(N)N)n2)n1` , melting point reported as 254 °C

The recorded melting point for entry `c1csc(-c2ccc(-c3cccs3)c3nsnc23)c1` equals 121 to 122 °C

melting point reported for this molecule `CC(C)N(Sc1ccc([N+](=O)[O-])cc1C(Cl)(Cl)Cl)C(C)C` : 104 °C

Record CC1CN(c2ccc(C(N)=O)cc2)CCN1Cc1cn2cc(Cl)ccc2n1 (racemic) . Reported melting point: 202 to 204 °C

Kindly note the recorded melting point for `O=C(CCn1ccnc1)N1c2ccccc2Sc2ccccc21` , which is 150 to 152 °C

---

Overview of reported melting point across a group of compounds:

- compound: "Cn1c(=O)c2c(ncn2CC(O)Cc2noc(CCN3CCCCC3)n2)n(C)c1=O (stereo unspecified)"
  experimentalResult: "110 to 111 °C"

Item: `Clc1ccc(C2CCN(CCCOc3ccc4c(c3)CNCCC4)CC2)cc1` | melting point: 97 to 99 °C

Measured melting point of `c1ccc2c(c1)ncc1ncsc12` : 114 to 116 °C

melting point recorded for this compound, CNC(=S)C1(c2ccncc2)CCCCC1=O (stereo unspecified) , is 182 to 183 °C

---

Entries and their measured melting point follow.

- compound: "CCCCCc1cc(-c2ccc(F)cc2C(C)O)c(C(C)C)nc1C(C)C (stereo unspecified)"
  propertyMeasured: "melting point"
  experimentalResult: "84 to 86 °C"
- compound: "CCOC(=O)c1ccccc1Nc1ccc(OC)cc1C"
  propertyMeasured: "melting point"
  experimentalResult: "42 to 43 °C"
- compound: "NS(=O)(=O)c1ccc(-n2nc(CCCNC(=O)Nc3ccc(Cl)cc3)cc2-c2ccccc2)cc1"
  propertyMeasured: "melting point"
  experimentalResult: "103 to 110 °C"
- compound: "COc1ccccc1-c1cn(-c2ccccc2)nc1O"
  propertyMeasured: "melting point"
  experimentalResult: "165 to 167 °C"
- compound: "CCC1(CCSC(C)=O)C(=O)N2CCCC(C(=O)OC(C)(C)C)N2C1=O (stereo unspecified)"
  propertyMeasured: "melting point"
  experimentalResult: "82 to 84 °C"

Attention now turns to another entry.
Note to self: melting point recorded for `c1ccc2oc(-c3ccncc3)nc2c1` was 129 to 131 °C

---

propertyMeasured: melting point

Recorded results for 10 compounds are shown here.
- compound: "N#CCCCCNc1ccc(O)cc1"
  melting point: "88 to 90 °C"
- compound: "Cc1nc(-c2ccc3c(=O)n(CC(C)C)c(CNC(=O)OC(C)(C)C)c(-c4ccccc4)c3c2)sc1C#N"
  melting point: "209 to 211 °C"
- compound: "CCCCCCCC[C@H](C(=S)Nc1c(SC)ccc2ncccc12)c1ccccc1"
  melting point: "126 to 128 °C"
- compound: "CNC(=O)c1ccc(-c2ccc3cnc(Nc4ccc(N5CCC(N6CCN(C)CC6)CC5)cc4OC)nn23)cc1"
  melting point: "112 to 114 °C"
- compound: "Cc1ccc(S(=O)(=O)N2CCCN(c3cccc(C)c3C)CC2)cc1"
  melting point: "86.2 °C"
- compound: "Oc1cccc(Cc2ccc3ccccc3c2O)c1"
  melting point: "100 to 101 °C"
- compound: "CCCCCCCCCCCCCCOC(=O)CCC(=O)O"
  melting point: "48 to 49 °C"
- compound: "CC(=O)Nc1ccc(SC2SCC(OC(C)=O)C(OC(C)=O)C2OC(C)=O)cc1 (stereo not given)"
  melting point: "168 to 174 °C"
- compound: "N#Cc1cc2c(Cl)ncnc2s1"
  melting point: "185 to 190 °C"
- compound: "CN(C)CCC1=Cc2ccc(OCc3ccc(-c4ccccc4)cc3)cc2CC1"
  melting point: "123 to 126 °C"

So, CC(C)NC(=O)C(C)(F)c1ccc(OS(=O)(=O)C(F)(F)F)cc1 (stereo not given) ? Its melting point was 90 to 92 °C

GET /value?item= CP(=O)(NCC(=O)OCc1ccccc1)C1CC(c2ccccc2)=NO1 (stereo not given) &field=melting point returns 132 to 135 °C

Memo: `O=C(NCc1c[nH]c(=S)n1[C@H]1CCc2c(F)cc(F)cc2C1)c1ccco1` , reported melting point: 227 to 231 °C
